The measurements presented in this section are drawn from the supplement of paper PMC3545927.

biological target: furin, P09958; assay: furin cleavage Z-score vs untreated control; higher = more cleavage, active = 3.5 or more, inactive = 1 or less, 8 variable residues between constant flanks; details: 30 min;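 note: purified furin at 1:10 enzyme:substrate in 50 mM HEPES pH 7.5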
Sequence (P09958 whole entry): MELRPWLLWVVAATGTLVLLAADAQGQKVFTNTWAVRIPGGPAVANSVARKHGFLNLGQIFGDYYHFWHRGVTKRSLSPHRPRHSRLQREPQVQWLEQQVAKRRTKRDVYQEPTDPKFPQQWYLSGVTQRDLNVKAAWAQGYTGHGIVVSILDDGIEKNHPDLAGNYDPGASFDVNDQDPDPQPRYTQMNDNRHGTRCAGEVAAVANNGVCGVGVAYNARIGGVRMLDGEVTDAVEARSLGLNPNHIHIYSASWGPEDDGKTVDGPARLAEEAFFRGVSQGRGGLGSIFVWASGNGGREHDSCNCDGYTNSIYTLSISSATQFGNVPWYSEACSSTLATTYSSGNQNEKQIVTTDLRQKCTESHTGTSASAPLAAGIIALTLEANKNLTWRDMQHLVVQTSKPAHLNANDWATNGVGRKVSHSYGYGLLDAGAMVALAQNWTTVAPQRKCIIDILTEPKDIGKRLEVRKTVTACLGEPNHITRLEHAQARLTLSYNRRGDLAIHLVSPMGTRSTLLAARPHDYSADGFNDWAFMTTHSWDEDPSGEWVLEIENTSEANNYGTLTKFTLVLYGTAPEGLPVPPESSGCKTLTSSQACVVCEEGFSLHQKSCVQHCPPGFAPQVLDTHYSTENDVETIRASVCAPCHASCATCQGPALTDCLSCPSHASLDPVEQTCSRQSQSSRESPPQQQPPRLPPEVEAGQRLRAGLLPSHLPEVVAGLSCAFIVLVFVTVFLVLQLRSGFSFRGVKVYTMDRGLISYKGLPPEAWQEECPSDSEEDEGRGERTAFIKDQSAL
Some of the results follow. No count for the full screen is at hand.
The reply should be one of these categories: active, inactive

Sequence Input	Class Name
CATTPRSGSWAGNASASA [HC50]	inactive
CADSGRKTRSAGNASASA [FS-760]	active
CARMWRKTRSAGNASASA [FS-955]	active

Would you kindly look at the next entry?
input: What call does the record list for CARFWRKTRSAGNASASA [FS-1396] ?
output: active
